The reported numbers originate from ChEMBL document CHEMBL4390647.

tested on: Klebsiella pneumoniae; test: Antibacterial activity against measured after Klebsiella pneumoniae ATCC 4352 measured after 18 to 20 hrs by microbroth dilution method; format: functional
measurementKind: MIC (µM)
Write the answer as a number in µM, unit excluded.

Value lookup for MIC; key = CC(=O)OC[C@H]1O[C@@H](n2cc(COc3ccc4c(c3)OC(N)=C(C#N)C4c3ccc(C)cc3)nn2)[C@H](OC(C)=O)[C@@H](OC(C)=O)[C@@H]1OC(C)=O (some centres undefined)
400

Then CN[C@H](CC(C)C)C(=O)N[C@H]1C(=O)N[C@@H](CC(N)=O)C(=O)N[C@H]2C(=O)N[C@H]3C(=O)N[C@H](C(=O)N[C@H](C(=O)O)c4cc(O)cc(O)c4-c4cc3ccc4O)[C@H](O)c3ccc(c(Cl)c3)Oc3cc2cc(c3O[C@@H]2O[C@H](CO)[C@@H](O)[C@H](O)[C@H]2O[C@H]2C[C@](C)(N)[C@H](O)[C@H](C)O2)Oc2ccc(cc2Cl)[C@H]1O ?
3.12

CC(=O)OC[C@H]1O[C@@H](n2cc(COc3ccc4c(c3)OC(N)=C(C#N)C4c3ccc(Cl)cc3)nn2)[C@H](OC(C)=O)[C@@H](OC(C)=O)[C@@H]1OC(C)=O (some centres undefined) ?
12.5

Also CC(=O)OC[C@H]1O[C@@H](n2cc(COc3ccc4c(c3)OC(N)=C(C#N)C4c3ccccc3Cl)nn2)[C@H](OC(C)=O)[C@@H](OC(C)=O)[C@@H]1OC(C)=O (some centres undefined) , if possible.
400
